Assay Explanation: total protein half-life in vivo (active degradation + dilution); higher = more stable protein
Recorded Conditions: E. coli NCM3722 delta-hslV; growth: N-lim chemostat; doubling time 6 h
Quantity: total protein half-life in vivo (h)
The reply should contain only the number, in h.

Query :: Please report the recorded total protein half-life in vivo for MIEKIWSGESPLWRLLLPLSWLYGLVSGAIRLCYKLKLKRAWRAPVPVVVVGNLTAGGNGKTPVVVWLVEQLQQRGIRVGVVSRGYGGKAESYPLLLSADTTTAQAGDEPVLIYQRTDAPVAVSPVRSDAVKAILAQHPDVQIIVTDDGLQHYRLARDVEIVVIDGVRRFGNGWWLPAGPMRERAGRLKSVDAVIVNGGVPRSGEIPMHLLPGQAVNLRTGTRCDVAQLEHVVAMAGIGHPPRFFATLKMCGVQPEKCVPLADHQSLNHADVSALVSAGQTLVMTEKDAVKCRAFAEENWWYLPVDAQLSGDEPAKLLTQLTLLASGN .
Result :: 6.52

Query :: Consider the sequence MQSWYLLYCKRGQLQRAQEHLERQAVNCLAPMITLEKIVRGKRTAVSEPLFPNYLFVEFDPEVIHTTTINATRGVSHFVRFGASPAIVPSAVIHQLSVYKPKDIVDPATPYPGDKVIITEGAFEGFQAIFTEPDGEARSMLLLNLINKEIKHSVKNTEFRKL [P0AFW0] and give its measured total protein half-life in vivo.
Result :: 3.23

Query :: Sample MERNVTLDFVRGVAILGILLLNISAFGLPKAAYLNPAWYGAITPRDAWTWAFLDLIGQVKFLTLFALLFGAGLQMLLPRGRRWIQSRLTLLVLLGFIHGLLFWDGDILLAYGLVGLICWRLVRDAPSVKSLFNTGVMLYLVGLGVLLLLGLISDSQTSRAWTPDASAILYEKYWKLHGGVEAISNRADGVGNSLLALGAQYGWQLAGMMLIGAALMRSGWLKGQFSLRHYRRTGFVLVAIGVTINLPAIALQWQLDWAYRWCAFLLQMPRELSAPFQAIGYASLFYGFWPQLSRFKLVLAIACVGRMALTNYLLQTLICTTLFYHLGLFMHFDRLELLAFVIPVWLANILFSVIWLRYFRQGPVEWLWRQLTLRAAGPAISKTSR — what was its total protein half-life in vivo?
Result :: 5.75

Query :: Query: total protein half-life in vivo; subject: MYPVDLHMHTVASTHAYSTLSDYIAQAKQKGIKLFAITDHGPDMEDAPHHWHFINMRIWPRVVDGVGILRGIEANIKNVDGEIDCSGKMFDSLDLIIAGFHEPVFAPHDKATNTQAMIATIASGNVHIISHPGNPKYEIDVKAVAEAAAKHQVALEINNSSFLHSRKGSEDNCREVAAAVRDAGGWVALGSDSHTAFTMGEFEECLKILDAVDFPPERILNVSPRRLLNFLESRGMAPIAEFADL
Result :: 3.94

Query :: Quick check: total protein half-life in vivo of MKATSEELAIFVSVVESGSFSRAAEQLGQANSAVSRAVKKLEMKLGVSLLNRTTRQLSLTEEGERYFRRVQSILQEMAAAESEIMETRNTPRGLLRIDAATPVVLHFLMPLIKPFRERYPEVTLSLVSSETIINLIERKVDVAIRAGTLTDSSLRARPLFNSYRKIIASPDYISRYGKPETIDDLKQHICLGFTEPASLNTWPIARSDGQLHEVKYGLSSNSGETLKQLCLSGNGIACLSDYMIDKEIARGELVELMADKVLPVEMPFSAVYYSDRAVSTRIRAFIDFLSEHVKTAPGGAVREA ?
Result :: 5.5

Query :: What does the data say about its total protein half-life in vivo? Entry: MTMKKLLIIILPVLLSGCSAFNQLVERMQTDTLEYQCDEKPLTVKLNNPRQEVSFVYDNQLLHLKQGISASGARYTDGIYVFWSKGDEATVYKRDRIVLNNCQLQNPQR
Result :: 6.27

Query :: Dear colleague, I am looking for the recorded total protein half-life in vivo of the following sequence: MRTISYSEARQNLSATMMKAVEDHAPILITRQNGEACVLMSLEEYNSLEETAYLLRSPANARRLMDSIDSLKSGKGTEKDIIE
Result :: 2.66

Query :: If you can, please state the reported total protein half-life in vivo value of MKKLQIAVGIIRNENNEIFITRRAADAHMANKLEFPGGKIEMGETPEQAVVRELQEEVGITPQHFSLFEKLEYEFPDRHITLWFWLVERWEGEPWGKEGQPGEWMSLVGLNADDFPPANEPVIAKLKRL .
Result :: 4.58
